Cited source for all entries: PubChem BioAssay (NCI)

The entries below are paired with their reported growth.
Test system: SF-295 CNS
Test: NCI-60 one-dose screen, 48 h (100 = growth as untreated, 0 = no growth, -100 = all killed)
Conditions: 10 µM unless noted
About 83,000 compounds went through this panel and 20% of them were active in at least one assay; those are over-represented in the sample as a whole.
Return type: number; implicit unit %.

Prompt: Dear colleague, please send me the reported growth for Cc1cccc(-c2nnc(SCC(=O)Nc3ncc(Cc4ccccc4)s3)n2N2C(=O)CSC2=S)c1 when you can.
Completion: 77.7

Prompt: Dear colleague, please send me the reported growth for N=C(N)c1ccc(-c2ccc(-c3ccc(F)cc3)s2)nc1 when you can.
Completion: 79.5

Prompt: Dear colleague, please send me the reported growth for O=C1Nc2ccccc2/C1=C/c1cccn1CCCCCn1c2ccccc2c(=O)c2ccccc21 when you can.
Completion: 93.1

Prompt: Dear colleague, please send me the reported growth for Clc1cccc(Nc2ncnc3ccc(-c4cncc(-n5cnnn5)c4)cc23)c1 when you can.
Completion: 76.9

Prompt: Dear colleague, please send me the reported growth for C=CCNC(=O)Cc1c(-c2ccc(OC)cc2)oc2c(OC)c3c(c(OC)c12)OCO3 when you can.
Completion: 106

Prompt: Dear colleague, please send me the reported growth for N=c1ccccn1CCO when you can.
Completion: 124

###

System: NCI/ADR-RES ovarian
Experiment: NCI-60 one-dose screen, 48 h (100 = growth as untreated, 0 = no growth, -100 = all killed)
Conditions: 10 µM
The panel holds about 83,000 compounds, 20% with a hit somewhere; the sample as a whole holds those more often. Active and inactive are the calls of the source. Rule for the calls: active = growth percent below 10; inactive = the rest.
The entries below are paired with their reported growth.

Examples with answers:
[
  {
    "structureNotation": "CCN(Cc1ccccc1)c1ccc(/C=C2\\COc3ccccc3C2=O)cc1",
    "growth": "101% (inactive)"
  },
  {
    "structureNotation": "COc1ccc(C(=O)/C=C/c2ccc(OCc3ccc(Cl)cc3)cc2)cc1OC",
    "growth": "91.5% (inactive)"
  },
  {
    "structureNotation": "O=C(/C=C/c1cccc(Oc2ccc(Cl)cc2)c1)c1ccccc1",
    "growth": "98.8% (inactive)"
  }
]

# next compound below
Prompt: Dear colleague, please send me the reported growth for CC(=O)/C=C/c1ccc(N(CCO)Cc2ccc(C(C)(C)C)cc2)cc1 when you can.
Completion: 67% (inactive)

###

Test system: A498 renal
Test: NCI-60 one-dose screen, 48 h
Details: 10 µM unless noted
This is part of a sample that, as a whole, favours compounds with a hit. Of some 83,000 tested, about 20% had one in any assay. Active and inactive are the calls of the source. How the source made its calls: active means growth percent below 10; inactive means the rest.
Choose one outcome from this list and give only that: active, inactive

Here are 3 molecules together with their reported answers.
[
  {
    "molecule": "CNC(=O)c1cc(Oc2ccc3nc(NC(=O)Nc4ccc(C(F)(F)F)cc4)sc3c2)ccn1",
    "assaySystem": "A498 renal",
    "assignedCategory": "inactive"
  },
  {
    "molecule": "O=C(CCCCCCCCC(=O)N/N=C\\c1ccccc1O)N/N=C\\c1ccccc1O",
    "assaySystem": "A498 renal",
    "assignedCategory": "inactive"
  },
  {
    "molecule": "Cc1cc(N2CCN(CC(=O)Nc3ccc4c(ccn4Cc4ccccc4)c3)CC2)nc(N2CCCCCC2)n1",
    "assaySystem": "A498 renal",
    "assignedCategory": "active"
  }
]

Prompt: Test call for this molecule, please: O=C(CCN1CCOCC1)Nc1cccc(-n2cc(-c3ccncc3)c(-c3ccc(Cl)c(O)c3)n2)c1
Completion: inactive

Prompt: Test call for this molecule, please: Oc1ccccc1C=Nc1ccc(N2CCN(c3ccccc3)CC2)cc1
Completion: inactive

Prompt: Test call for this molecule, please: COc1ccc2c(O)c(/C=C3\N=Nc4nc(C)ccc43)oc2c1CC1CCNCC1
Completion: inactive

Prompt: Test call for this molecule, please: COc1ccccc1/C=C1\COc2ccc(O)c(O)c2C1=O
Completion: inactive

Prompt: Test call for this molecule, please: Cc1ccc(S(=O)(=O)OC[C@@]2(C)CC[C@]3(C)CC[C@]4(C)C(=C3C2)C=C[C@@H]2[C@@]3(C)CCCNC(C)(C)[C@@H]3CC[C@]24C)cc1
Completion: inactive

Prompt: Test call for this molecule, please: COc1cc(/C=C2\C(=O)N(CCCCn3c4ccccc4c(=O)c4ccccc43)c3ccccc32)cc(OC)c1O
Completion: inactive

Prompt: Test call for this molecule, please: CCOC(=O)c1nnn(Cc2cc(=O)oc3c2ccc2ccccc23)c1C
Completion: inactive

Prompt: Test call for this molecule, please: CCN(C(=O)N1CCN(c2cc3c(cc2F)c(=O)c(C(=O)O)cn3C2CC2)CC1)c1nc(-c2ccccc2)cs1
Completion: active

Prompt: Test call for this molecule, please: CN(C)CCN1C(=O)c2c(c3c4ccccc4n4c3c3c2c2ccccc2n3C2CC(O)C(O)C4(C)O2)C1=O (centres undefined)
Completion: inactive
